- target_or_system: Human neutrophil elastase (HNE, EC 3.4.21.37) (Homo sapiens, UniProt P08246)
- Construct: purchased Sigma-Aldrich
- Sequence (P08246 30-267): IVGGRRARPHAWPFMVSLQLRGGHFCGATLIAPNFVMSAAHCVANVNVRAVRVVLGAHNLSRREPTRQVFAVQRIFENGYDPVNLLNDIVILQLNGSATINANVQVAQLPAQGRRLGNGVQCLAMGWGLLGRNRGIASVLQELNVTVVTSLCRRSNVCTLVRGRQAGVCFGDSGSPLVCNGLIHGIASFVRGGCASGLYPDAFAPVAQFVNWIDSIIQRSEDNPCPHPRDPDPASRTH
- test_protocol: Human neutrophil elastase inhibition, spectrophotometric, MeOSuc-AAPV-pNA substrate
- Format: biochemical
- measurement_context: concentration that caused 50% enzyme activity loss; three sets of experiments
Could you please report measured IC50 for the items listed next?

The examples below pair each entry with its known result.
COC1OC(C=C(C)C=CC=C(C)CCC=C(C)C)CC12C(CCCO)C(=C(C)C=O)CCC2(C)O (stereo not drawn) | 6.8 µM
CC(C)=CCCC(C)=CCC(O)C(C)=CCCC1(C)C(CCCO)C(=C(C)C=O)CCC1(C)O (stereo not drawn) | 27 µM

Query block: Requested field: IC50. Item: `CC(C)=CCC/C(C)=C/C[C@@H](O)/C(C)=C/CC[C@@]1(C)[C@H](CCCO)/C(=C(/C)C=O)CC[C@]1(C)O`
Result block: 14.4 µM

###

Could you please report measured pKi for the items listed next?
- target_or_system: Human neutrophil elastase (HNE, EC 3.4.21.37) (Homo sapiens)
- test_protocol: Human neutrophil elastase inhibition, spectrophotometric, MeOSuc-AAPV-pNA substrate
- measurement_context: Dixon plots; read-out: Ki (inhibition constant)
Answers are plain numbers, as −log10 of the molar value.

CC(C)=CCCC(C)=CCC(O)C(C)=CCCC1(C)C(CCCO)C(=C(C)C=O)CCC1(C)O (stereo not drawn) | 4.60
CC(C)=CCC/C(C)=C/C[C@@H](O)/C(C)=C/CC[C@@]1(C)[C@H](CCCO)/C(=C(/C)C=O)CC[C@]1(C)O | 4.90

With those in mind, consider the next compound.
Query block: Requested field: pKi. Item: COC1OC(C=C(C)C=CC=C(C)CCC=C(C)C)CC12C(CCCO)C(=C(C)C=O)CCC2(C)O (stereo not drawn)
Result block: 5.21

Every entry's value here was drawn from paper PMC8588536.
